- Measurement Notes: Total emitted dose of the APIs from pMDI prototype formulations, HPLC assay
- Type: physicochemical
- Measurement Conditions: ED 7; pMDI Formulation 1-4
Field: emitted dose. Provide a value for each of the compounds that follow.
Number, no unit, nothing else.

Briefly, emitted dose measured for CCCCCc1cc(O)c2c(c1)OC(C)(CCC=C(C)C)C=C2 (stereo not shown) [CBC, cannabichromene] : 262.4

Briefly, emitted dose measured for CCCCCc1cc(O)c(C/C=C(\C)CCC=C(C)C)c(O)c1 [CBG, cannabigerol] : 331.0

Briefly, emitted dose measured for CCCCCc1cc(O)c2c(c1)OC(C)(C)c1ccc(C)cc1-2 [CBN, cannabinol] : 255.7

Briefly, emitted dose measured for C=C(C)[C@@H]1CCC(C)=C[C@H]1c1c(O)cc(CCC)cc1O [CBDV, cannabidivarin] : 265.4
